test system: OC-314 (Ovarian Carcinoma); assay: Bliss excess, mean over the matrix (fraction); higher = more synergy;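 also: after 72 h of two-drug dosing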
Use 0.003 as the dividing line for Bliss excess, with the line itself on the criterion met side and lower values as criterion not met.

compound	class label
NC1(C(=O)N[C@@H](CCO)c2ccc(Cl)cc2)CCN(c2ncnc3[nH]ccc23)CC1 [Capivasertib] + CCN(CCO)CCCOc1ccc2c(Nc3cc(CC(=O)Nc4cccc(F)c4)[nH]n3)ncnc2c1 [AZD2811] (first compound max 10 µM, 7x7, partner max 1 µM)	criterion not met
COc1nnc2ccc(N3CCC(c4ccc(OCCN5CCN(C)C(=O)[C@H]5C)cc4)CC3)nn12 [AZD5153] + Cn1cnc2c(F)c(Nc3ccc(Br)cc3Cl)c(C(=O)NOCCO)cc21 [Selumetinib] (first compound max 1 µM, 7x7, partner max 10 µM)	criterion not met
C[C@@H](Nc1cc(F)cc(F)c1)c1cc(C(=O)N(C)C)cc2c(=O)cc(N3CCOCC3)oc12 [AZD8186] + C1CN(CCC1(C(=O)N[C@@H](CCO)C2=CC=C(C=C2)Cl)N)C3=NC=NC4=C3C=CN4 [AZD5363] (first compound max 10 µM, 7x7, partner max 10 µM)	criterion met
CCN(CCO)CCCOc1ccc2c(Nc3cc(CC(=O)Nc4cccc(F)c4)[nH]n3)ncnc2c1 [AZD2811] + C=CCn1c(=O)c2cnc(Nc3ccc(N4CCN(C)CC4)cc3)nc2n1-c1cccc(C(C)(C)O)n1 [AZD1775] (first compound max 1 µM, partner max 1 µM)	criterion met
CC(=O)c1c(C)c2cnc(Nc3ccc(N4CCNCC4)cn3)nc2n(C2CCCC2)c1=O [Palbociclib] + Cn1cnc2c(F)c(Nc3ccc(Br)cc3Cl)c(C(=O)NOCCO)cc21 [Selumetinib] (first compound max 10 µM, 7x7, partner max 10 µM)	criterion met
CC1(C)CCC(CN2CCN(c3ccc(C(=O)NS(=O)(=O)c4ccc(NCC5CCOCC5)c([N+](=O)[O-])c4)c(Oc4cnc5[nH]ccc5c4)c3)CC2)=C(c2ccc(Cl)cc2)C1 [Venetoclax] + COc1cc(Nc2ncc3c(n2)-c2ccc(Cl)cc2C(c2c(F)cccc2OC)=NC3)ccc1C(=O)O [Alisertib] (first compound max 1 µM, 7x7, partner max 10 µM)	criterion met
COc1cccc2c1C(=O)c1c(O)c3c(c(O)c1C2=O)C[C@@](O)(C(=O)CO)C[C@@H]3O[C@H]1C[C@H](N)[C@H](O)[C@H](C)O1 [Doxorubicin] + Cc1cc2ncnn2cc1Nc1ncc2c(n1)n(C1CCOCC1)c(=O)n2C [AZD7648] (first compound max 1 µM, 7x7, partner max 10 µM)	criterion met
CCc1c2c(nc3ccc(O)cc13)-c1cc3c(c(=O)n1C2)COC(=O)[C@]3(O)CC [SN-38] + O=C(c1cc(Cc2n[nH]c(=O)c3ccccc23)ccc1F)N1CCN(C(=O)C2CC2)CC1 [Olaparib] (first compound max 0.3 µM, 7x7, partner max 10 µM)	criterion met
Cc1cc2ncnn2cc1Nc1ncc2c(n1)n(C1CCOCC1)c(=O)n2C [AZD7648] + CN(C)CCCOc1ccc(-c2ccc3ncc4c(c3c2)n(C2CCOCC2)c(=O)n4C)cn1 [AZD0156] (first compound max 10 µM, 7x7, partner max 1 µM)	criterion met
Cc1nc(-c2cn3c(n2)-c2ccc(-c4cnn(C(C)(C)C(N)=O)c4)cc2OCC3)n(C(C)C)n1 [Taselisib] + O=C(Nc1ccc2[nH]nc(-c3ccncc3)c2c1)[C@@H]1CCN(CC(=O)N2CCN(c3ccc(-c4ncccn4)cc3)CC2)C1 [SCH772984] (first compound max 10 µM, 7x7, partner max 5 µM)	criterion met
CN(CCO)CC[C@H](CSc1ccccc1)Nc1ccc(S(=O)(=O)NC(=O)c2ccc(N3CCC([C@@H](O)c4ccccc4-c4ccc(Cl)cc4)CC3)cc2)cc1S(=O)(=O)C(F)(F)F [AZD4320] + CN(C)CCCOc1ccc(-c2ccc3ncc4c(c3c2)n(C2CCOCC2)c(=O)n4C)cn1 [AZD0156] (first compound max 1 µM, 7x7, partner max 1 µM)	criterion not met
C=CCn1c(=O)c2cnc(Nc3ccc(N4CCN(C)CC4)cc3)nc2n1-c1cccc(C(C)(C)O)n1 [AZD1775] + CCc1c2c(nc3ccc(O)cc13)-c1cc3c(c(=O)n1C2)COC(=O)[C@]3(O)CC [SN-38] (first compound max 1 µM, partner max 0.3 µM)	criterion met
Cc1cc2ncnn2cc1Nc1ncc2c(n1)n(C1CCOCC1)c(=O)n2C [AZD7648] + O=C(c1cc(Cc2n[nH]c(=O)c3ccccc23)ccc1F)N1CCN(C(=O)C2CC2)CC1 [Olaparib] (first compound max 10 µM, 7x7, partner max 10 µM)	criterion not met
CN(CCO)CC[C@H](CSc1ccccc1)Nc1ccc(S(=O)(=O)NC(=O)c2ccc(N3CCC([C@@H](O)c4ccccc4-c4ccc(Cl)cc4)CC3)cc2)cc1S(=O)(=O)C(F)(F)F [AZD4320] + CC(=O)O[C@H]1C(=O)[C@@]2(C)[C@H]([C@H](OC(=O)c3ccccc3)[C@]3(O)C[C@H](OC(=O)[C@H](O)[C@@H](NC(=O)c4ccccc4)c4ccccc4)C(C)=C1C3(C)C)[C@]1(OC(C)=O)CO[C@@H]1C[C@@H]2O [Paclitaxel] (first compound max 1 µM, 7x7, partner max 3 µM)	criterion met
